Known inhibition of a selection of molecules
- tgt: Nuclear receptor coactivator 2 (Homo sapiens)
- assay-summary: inhibition of GAL4-SRC2 driven luciferase reporter, primary screen, SRC2 inhibitor project, cell-based, luminescence (AID 651957);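 also: 0% = DMSO treated cells and 100% = cells given Gossypol at 36 µM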
- particulars: HEK293 GAL4-SRC2 luciferase reporter, at 9 µM, active compounds read high
In all, about 370,000 compounds went through this assay and about 620 (0.17%) were called active. Only a selection was taken, and actives are over-represented in it overall.
property-name: inhibition (%)

| molecule | property-name | numeric-value |
| --- | --- | --- |
| Cc1ccccc1CN1CCCCC(NC(=O)c2cccc(C#N)c2)C1=O (stereo unspecified) | inhibition | -18.3 |
| COc1ccc2c(c1)CN1CN(CCc3ccccc3)S(=O)(=O)CC21 (stereo unspecified) | inhibition | 5.4 |
| CCC(CO)Nc1cccc2c1S(=O)(=O)N(Cc1cn(Cc3ccccc3C(F)(F)F)nn1)Cc1ccccc1O2 (stereo unspecified) | inhibition | -19.2 |
| COc1ccc(/C=C2/SC(=O)N(CCCCCC(=O)Nc3ccccc3C(=O)O)C2=S)cc1 | inhibition | 58.3 |
| C[C@H](NC(=O)C1CC(=O)N(c2ccc3c(c2)OCO3)C1)C(=O)NCc1ccco1 (stereo partly specified) | inhibition | -21.3 |
| COc1ccc(NC(=O)CN2C(=O)CSC2=O)cc1 | inhibition | -15.1 |
| CC(=O)C1=C(C)N(Cc2ccccc2)C(=S)NC1c1cccc(Br)c1 (stereo unspecified) | inhibition | -0.56 |
| CCNc1nc(NC(C)C)nc(OCCOC(=O)c2ccccc2)n1 | inhibition | -5.88 |
| O=C(O)C1C2C=CC(C2)C1C(=O)N1CCN(CCO)CC1 (stereo unspecified) | inhibition | -0.51 |
| CCOC(=O)[C@]12CCCCC/C=C\1N(Cc1ccc(OC)cc1)C(=O)[C@H]2CC(=O)NCc1ccc(C)o1 | inhibition | -22.3 |
| CCCCOCCCNC(=O)C[C@H]1C[C@@]2(C(=O)OC)C(=C[C@H](COCc3ccccc3)O[C@@H]2C)N(Cc2cccc3ccccc23)C1=O | inhibition | 6.59 |
| CC(=O)c1cc(-c2ccc3ccccc3c2)c(=O)n2c1CCC2 | inhibition | -32.7 |
| O=C(C1CCN(S(=O)(=O)c2ccccc2)CC1)N1CCN(C2CCCCC2)CC1 | inhibition | 14.3 |
| COc1cc(F)ccc1-c1cc(C(=O)NCC2CCCCC2)[nH]n1 | inhibition | -20 |
| CN1CCNC(=O)C1CC(=O)NCCC1=CCCCC1 (stereo unspecified) | inhibition | 20.1 |
| CC1(C)Cc2c(sc3nc(SCC(=O)NCc4ccccc4)n(-c4ccccc4)c(=O)c23)CS1 | inhibition | -9.11 |
| O=C(NCc1ccccc1)[C@H]1CCCN1C(=O)[C@H]1CCCN1C(=O)N1CCOCC1 | inhibition | 3.99 |
| C=CC1C(OC2OC(CO)C(O)C(O)C2O)OC=C(C(=O)OC)C1CC1CC(=O)CC(CC(=O)CCc2ccc(O)cc2)O1 (stereo unspecified) | inhibition | -3.45 |
| Cc1[nH]n(C(N)=S)c(=O)c1N=Nc1ccc(Cl)cc1Cl | inhibition | -13.3 |
| O=c1oc2ccccc2cc1-c1cn(-c2ccccc2)c(=S)[nH]1 | inhibition | 80.4 |
| COc1cccc(N(C)C(=O)[C@@H](C)[C@@H](O)c2ccc3ccccc3c2)c1 | inhibition | -32.8 |
| C[C@@H]1ON(C)[C@H]2C[C@H]3c4[nH]c5cccc(-c6ccc7c(c6)OCO7)c5c4CCN3C[C@@H]12 | inhibition | -21 |
| Cc1ccc(C2=CCN(C)C(=O)N2c2ccc(Cl)cc2)cc1 | inhibition | 30.5 |
| CCCOc1ccc(F)cc1-c1cc(C(=O)Nc2ccc(F)cc2)[nH]n1 | inhibition | 0.04 |
| CC(c1ccc(N)cc1)c1cn(C)c2ccccc12 (stereo unspecified) | inhibition | -4.44 |
| C#CCNC(=O)C[C@H]1C[C@@]2(C(=O)OC)C(=C[C@H](C(C)C)O[C@@H]2C2CC2)N(Cc2ccco2)C1=O | inhibition | 14.7 |
| COc1ccc(C(C#N)=C2C=CC(=NO)c3ccccc32)cc1 | inhibition | 23.7 |
| O=C(Nc1ccccc1)N1CCN(Cc2nc3ccccc3c(=O)[nH]2)CC1 | inhibition | -10.6 |
| O=C(NC(=S)N1CCN(Cc2ccccc2)CC1)c1ccccc1 | inhibition | -12.4 |
| CC(=O)NCc1ccc(S(=O)(=O)NC2CCN(Cc3ccccc3)CC2)cc1 | inhibition | 6.61 |
| O=C(c1ccco1)N(Cc1nc2ccccc2c(=O)[nH]1)C1CCCC1 | inhibition | 2.27 |
| CCOC(=O)c1ccccc1NS(=O)(=O)c1c(C)nc2sccn2c1=O | inhibition | -4.6 |
| COc1ccc2cc(C(=O)O)n(CC(=O)c3ccccc3)c2c1 | inhibition | -12.1 |
| C[C@H]1CCC/C=C/C(=O)c2c(O)cc(O)cc2CC(=O)O1 | inhibition | 64.6 |
| CC(C)(C)c1ccc(Oc2ccc(N)cc2)cc1 | inhibition | 92 |
| O=S1(=O)c2c(cccc2N2CC[C@H](O)C2)O[C@@H]2CCN1C2 | inhibition | -22.3 |
| COC(=O)[C@]12C[C@H](CC(=O)N3CCN(C(=O)C4CC4)CC3)C(=O)N(CCC3=CCCCC3)C1=C[C@H](C(C)C)O[C@@H]2C1CC1 | inhibition | -0.28 |
| C=CCOc1ccc(C(=O)Nc2ccccc2C(=O)N2CCCC2)cc1 | inhibition | -24.2 |
| CN(c1ccc2nc3ccccc3c(=O)n2n1)C1CCCCC1 | inhibition | 72.1 |
| COc1cccc(CC(=O)N2CCN(C(=O)C(=O)c3cccc(C(F)(F)F)c3)CC2)c1 | inhibition | 7.57 |
| CC(C)CC1NC(=O)c2cc(Cl)ccc2-n2c1nc1ccccc1c2=O (stereo unspecified) | inhibition | 5.29 |
